Tested on: Escherichia coli EC14
Test: MIC, standard agar-dilution assay
Assay type: cell-based
Settings: read-out: MIC
Measurement Label: MIC (µg/mL)

>>> result("CC[C@H]1OC(=O)[C@H](C)[C@@H](O[C@H]2C[C@@](C)(OC)[C@@H](O)[C@H](C)O2)[C@H](C)[C@@H](O[C@@H]2O[C@H](C)C[C@H](N(C)C)[C@H]2O)[C@](C)(O)C[C@@H](C)[C@H](NCCCCCO)[C@H](C)[C@@H](O)[C@]1(C)O [Compound 21]")
32
>>> result("CC[C@H]1OC(=O)[C@H](C)[C@@H](O[C@H]2C[C@@](C)(OC)[C@@H](O)[C@H](C)O2)[C@H](C)[C@@H](O[C@@H]2O[C@H](C)C[C@H](N(C)C)[C@H]2O)[C@](C)(O)C[C@@H](C)[C@H](NCCC(C)CCCC(C)(C)OC)[C@H](C)[C@@H](O)[C@]1(C)O (stereo partly shown) [Compound 24]")
128
>>> result("CCCCC/C=C\\CCCN[C@@H]1[C@H](C)[C@@H](O)[C@](C)(O)[C@@H](CC)OC(=O)[C@H](C)[C@@H](O[C@H]2C[C@@](C)(OC)[C@@H](O)[C@H](C)O2)[C@H](C)[C@@H](O[C@@H]2O[C@H](C)C[C@H](N(C)C)[C@H]2O)[C@](C)(O)C[C@H]1C [Compound 13]")
128
